Where these numbers come from: patent US20260226179A1

Target: T1, human membrane-bound IL-6R subunit alpha (human, UniProt P08887 20-468)
T1 sequence: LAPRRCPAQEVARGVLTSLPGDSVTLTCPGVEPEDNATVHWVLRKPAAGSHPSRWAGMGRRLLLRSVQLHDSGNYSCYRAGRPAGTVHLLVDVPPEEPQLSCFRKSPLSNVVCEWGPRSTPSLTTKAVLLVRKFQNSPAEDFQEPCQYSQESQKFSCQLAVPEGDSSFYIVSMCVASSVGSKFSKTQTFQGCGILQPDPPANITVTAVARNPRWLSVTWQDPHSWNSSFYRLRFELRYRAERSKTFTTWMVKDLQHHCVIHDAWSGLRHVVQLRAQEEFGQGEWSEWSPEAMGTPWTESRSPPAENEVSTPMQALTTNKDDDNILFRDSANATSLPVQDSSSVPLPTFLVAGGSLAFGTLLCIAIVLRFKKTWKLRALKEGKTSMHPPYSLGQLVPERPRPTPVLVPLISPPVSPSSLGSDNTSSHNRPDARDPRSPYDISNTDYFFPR
Assay: cell-based or functional assay
Measured IC50 for inhibition of IL-6 classical signalling-induced proliferation, listed per entry.

# example entries with known answers
{"binder": "anti-IL-6R IgG antibody 12 (C12 antibody, Fab chimerized with human IgG1) (antibody, V domains shown) VH: EVKLMESGGGLVQPGGSLKLSCAASGFTFSNYGMSWVRQTPDKRLEWVANINSNGGSTYYPDSVKGRFTISRDNAQNTLYLQMSSLKSEDTAMYYCTRDGNFVSDYWGQGTTLTVSS VL: DIVLTQSPASLAVSPGQRATISCRASESVDSYGNSFMNWYQQKPGQPPKLLIYLASNLESGVPARFSGSGSRTDFTLTIDPVEADDAATYYCQQNNEDPYTFGGGTKLEIK", "result": "> 53 nM"}
{"binder": "anti-IL-6R IgG antibody 09 (C09 antibody, Fab chimerized with human IgG1) (antibody, V domains shown) VH: EVQLVESGGDLVQPGGSLKLSCAASGFTFSNYGMSWVRQTPDKRLELVAAINSNGGSTYYPDSVKGRFTISRDNAKNTLYLQMSSLKSEDTAMYYCARDGNYVSDYWGQGTTLTVSS VL: DIVLTQSPASLAVSLGQRATISCRASESVDSYGNSFMHWYQQKPGQPPKLLIYLASNLESGVPARFSGSGSRTDFTLTIDPVEADDAATYYCQQNNEDPWTFGGGTKLEIK", "result": "> 53 nM"}

Now for another entry.
Q) Param item = anti-IL-6R IgG antibody 20 (C20 antibody, Fab chimerized with human IgG1) (antibody, V domains shown) VH: EVKLMESGGGLVQPGGSLKLSCAASGFTFSNYGMSWVRQTPDKRLELVAIINSNGGSTYYPDSVKGRFTISRDNAKNTLYLQMSSLKSEDTAIYYCARDGNFVSDYWGQGTTLTVSS VL: DIVLTQSPASLAVSLGQRATISCRASESVDSYGNRFLNWYQQKPGQPPKLLIYLASNLESGVPARFSGSGSRTDFTLTIDPVEADDAATYYCQQNNEDPYTFGGGTKLEIK ; retrieve measured IC50 for inhibition of IL-6 classical signalling-induced proliferation.
A) > 53 nM
